Hey, just so you know, these numbers are from PubChem BioAssay (NCATS).

assay: Quantitative High-Throughput drug screen in 47 multiple myeloma cell lines against the NCATS MIPE library collection: H1112_PLB cell viability assay (AID 1918967; further: nearly all actives have a fitted effect of over 30% in size); settings: H1112 myeloma cells viability, ATP luminescence, 48 h; series mostly up to 45.8 µM
Results filed as inconclusive are left out. The source made the active and inactive calls. The call rests on the fitted dose curve; in most records, active means well fitted cell-killing curve with a large enough effect; inconclusive means small, poorly fitted or top-dose-only effect, or effect the other way; inactive means no such curve, though single readings can be large or run the other way.
Could you please pick one outcome from this set? active, inactive

See these solved cases before continuing.
Exercise: Which result was noted for this molecule in the test: CCCC1OC2C[C@@H]3[C@H]4CCC5=CC(=O)C=C[C@]5(C)[C@H]4C(O)C[C@]3(C)[C@]2(C(=O)CO)O1 (stereo not given in full)
Solution: inactive

Exercise: Which result was noted for this molecule in the test: CCC(=O)OCC(=O)[C@@]1(OC(=O)CC)[C@@H](C)C[C@@H]2[C@H]3CCC4=CC(=O)C=C[C@]4(C)[C@@]3(F)[C@@H](O)C[C@@]21C
Solution: inactive

Exercise: Which result was noted for this molecule in the test: CN(C)N=Nc1nc[nH]c1C(N)=O
Solution: inactive

***
Exercise: Which result was noted for this molecule in the test: C[C@]12C=CC(=O)C=C1CC[C@@H]1[C@@H]2[C@@H](O)C[C@@]2(C)[C@@H]1CC[C@]2(O)C(=O)CO
Solution: inactive

Exercise: Which result was noted for this molecule in the test: CC1(COc2ccc3c(c2)ncn3-c2ccc3cccc(N4CCC(N)CC4)c3n2)COC1
Solution: active

====

assay: Primary qHTS for inhibitors of nuclear receptor binding SET domain protein 2 (NSD2) in an RCH-ACV wild type WT cells (2C) (AID 1645877); conditions: RCH-ACV (leukaemia line) NSD2 WT (2C) viability, CellTiter-Glo, 72 h; series mostly up to 44.9 µM; further: nearly all actives have a fitted effect of over 70% in size
Records with an inconclusive call do not appear. Active and inactive are the calls of the source. Calls come from the whole dose curve; as a rule, active = well fitted inhibition curve with a large enough effect; inconclusive = small, poorly fitted or top-dose-only effect; inactive = no such curve, though single readings can be large or run the other way.
Could you please pick one outcome from this set? active, inactive

See these solved cases before continuing.
Exercise: Which result was noted for this compound in the test: CC(C)[C@H](O)C(=O)N[C@@H](C)C(=O)N[C@@H]1C(=O)N(C)CCc2ccccc21
Solution: inactive

Exercise: Which result was noted for this compound in the test: COc1nccc(-c2c(-c3ccc(F)cc3)ncn2C2CCC(O)CC2)n1 (stereo unspecified)
Solution: active

Would you kindly look at the next entry?
Exercise: Which result was noted for this compound in the test: CNC(=O)c1cc(Oc2ccc(NC(=O)Nc3ccc(Cl)c(C(F)(F)F)c3)c(F)c2)ccn1
Solution: active

====

test: High-throughput drug toxicity screening in the BPDCN cell line Gen2.2 (AID 1224824); settings: Gen2.2 BPDCN cells; at 45.8 µM (top of the series) unless noted;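 further: cells exposed to compounds for 48 h before reading; 100% = DMSO and 0% = bortezomib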
# cell viability, % of control (lower = more cytotoxic) per entry
Report as a plain number; the unit % is understood.

Exercise: Request the reported cell viability, % of control (lower = more cytotoxic) associated with CC1(COc2ccc3c(c2)ncn3-c2ccc3cccc(N4CCC(N)CC4)c3n2)COC1
Solution: 5.87

Alright, here's another compound for you.
Exercise: Request the reported cell viability, % of control (lower = more cytotoxic) associated with Cc1ccccc1-n1c(Cn2nc(-c3cccc(O)c3)c3c(N)ncnc32)nc2cccc(C)c2c1=O
Solution: 5.88

====

test: Quantitative High-Throughput drug screen in 47 multiple myeloma cell lines against the NCATS MIPE library collection: KMS12BM_JCRB cell viability assay (AID 1918971); details: KMS12BM myeloma viability, CellTiter-Glo ATP, 48 h; series mostly up to 45.8 µM; further: nearly all actives have a fitted effect of over 35% in size
Results filed as inconclusive are left out. The source made the active and inactive calls. Calls follow the shape of the dose curve; as a rule, active = well fitted cell-killing curve with a large enough effect; inconclusive = small, poorly fitted or top-dose-only effect, or effect the other way; inactive = no such curve, though single readings can be large or run the other way.
Could you please pick one outcome from this set? class 1 (active), class 0 (inactive)

See these solved cases before continuing.
Exercise: Which result was noted for this compound in the test: C=CC[N+]1([C@H]2C[C@H]3[C@@H]4CC[C@H]5C[C@H](O)[C@@H](N6CCOCC6)C[C@]5(C)[C@@H]4CC[C@]3(C)[C@H]2OC(C)=O)CCCC1
Solution: class 0

Exercise: Which result was noted for this compound in the test: C[C@@H]1CCO[C@H]2Cn3cc(C(=O)NCc4ccc(F)cc4F)c(=O)c(O)c3C(=O)N12
Solution: class 1

Exercise: Which result was noted for this compound in the test: CCOC(=O)[C@H](CCc1ccccc1)N[C@@H](C)C(=O)N1CCCC1C(=O)O (some centres not stated)
Solution: class 0

***
Exercise: Which result was noted for this compound in the test: CO[C@H]1O[C@@H]2O[C@@]3(C)CC[C@@H]4[C@@H](C)CC[C@@H]([C@H]1C)[C@@]24OO3
Solution: class 1

Exercise: Which result was noted for this compound in the test: COc1cc2c(cc1Cc1cccc(Cl)c1F)c(=O)c(C(=O)O)cn2[C@H](CO)C(C)C
Solution: class 1

Exercise: Which result was noted for this compound in the test: CC[C@H](NC(=O)[C@H](C)NC)C(=O)N1C[C@@H](O)C[C@H]1Cc1c(-c2[nH]c3cc(F)ccc3c2C[C@H]2C[C@H](O)CN2C(=O)[C@H](CC)NC(=O)[C@H](C)NC)[nH]c2cc(F)ccc12
Solution: class 0

Exercise: Which result was noted for this compound in the test: CCCC1OC2C[C@@H]3[C@H]4CCC5=CC(=O)C=C[C@]5(C)[C@H]4C(O)C[C@]3(C)[C@]2(C(=O)CO)O1 (some centres not stated)
Solution: class 1

====

experiment: qHTS of pediatric cancer cell lines to identify multiple opportunities for drug repurposing: Confirmatory screen for SK-N-SH cells (AID 1347129); details: SK-N-SH neuroblastoma cell viability; series mostly up to 46.1 µM;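 further: cells exposed to compound for 48 h before viability read; nearly all actives have a fitted effect of over 60% in size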
Inconclusive results are not listed. Active and inactive are the calls of the source. Calls come from the whole dose curve; as a rule, active = well fitted cell-killing curve with a large enough effect; inconclusive = small, poorly fitted or top-dose-only effect; inactive = flat fitted curve, though single readings scatter.
Could you please pick one outcome from this set? y (active), n (inactive)

Exercise: Which result was noted for this compound in the test: CC1(C)CC(=O)c2c(C(F)(F)F)nn(-c3ccc(C(N)=O)c(NC4CCC(O)CC4)c3)c2C1 (stereo unspecified)
Solution: y

Exercise: Which result was noted for this compound in the test: COC(=O)Nc1ccc(-c2nc(N3CCOCC3)c3cnn(C4CCN(C(=O)OC)CC4)c3n2)cc1
Solution: y

Exercise: Which result was noted for this compound in the test: C[C@@]1(C(=O)Nc2ccc(F)nc2)CCCN1c1nc(Nc2cc(C3CC3)[nH]n2)c2cccn2n1
Solution: y

Exercise: Which result was noted for this compound in the test: CO[C@H]1/C=C\O[C@@]2(C)Oc3c(C)c(O)c4c(O)c(c5c(nc6cc(C)ccn65)c4c3C2=O)NC(=O)C(C)=CC=C[C@H](C)[C@H](O)[C@@H](C)[C@@H](O)[C@@H](C)[C@H](OC(C)=O)[C@H]1C
Solution: n

Exercise: Which result was noted for this compound in the test: CCC[C@H](N[C@@H](C)C(=O)N1[C@@H]2CCCC[C@H]2C[C@H]1C(=O)O)C(=O)OCC
Solution: n

Would you kindly look at the next entry?
Exercise: Which result was noted for this compound in the test: CCCCn1c(=O)n(Cc2ccccc2F)c(=O)c2[nH]c(Cc3ccc(NC(C)=O)cc3)nc21
Solution: n

====

target: Cytochrome P450 2D6 (Homo sapiens); assay: Cytochrome P450 family 2 subfamily D member 6 (CYP2D6) small molecule antagonists: luciferase biochemical (cell-free) qHTS assay (AID 1645840); conditions: P450-Glo CYP2D6 enzyme, luciferin luminescence, 1 h; series mostly up to 57.4 µM; further: nearly all actives have a fitted effect of over 55% in size
Inconclusive results are not listed. Activity calls are given as the source filed them. Calls come from the whole dose curve; as a rule, active = well fitted inhibition curve with a large enough effect in the repeat runs; inconclusive = weak or mixed curves; inactive = flat fitted curve, though single readings scatter.
Could you please pick one outcome from this set? active, inactive

See these solved cases before continuing.
Exercise: Which result was noted for this compound in the test: NS(=O)(=O)c1cc(Cl)c(Cl)c(S(N)(=O)=O)c1
Solution: inactive

Exercise: Which result was noted for this compound in the test: Clc1ccc(COC(Cn2ccnc2)c2ccc(Cl)cc2Cl)c(Cl)c1 (stereo not given)
Solution: active

Exercise: Which result was noted for this compound in the test: CCNC(=O)c1noc(-c2cc(C(C)C)c(O)cc2O)c1-c1ccc(CN2CCOCC2)cc1
Solution: active

Exercise: Which result was noted for this compound in the test: C[C@H](c1ccc(F)cc1CCCC(=O)O)N(c1cc(F)ccc1F)S(=O)(=O)c1ccc(Cl)cc1
Solution: active

***
Exercise: Which result was noted for this compound in the test: COc1nccc(-c2c(-c3ccc(F)cc3)ncn2C2CCC(O)CC2)n1 (stereo not given)
Solution: inactive

====

test: qHTS of pediatric cancer cell lines to identify multiple opportunities for drug repurposing: Primary screen for SK-N-SH cells (AID 1347098); settings: SK-N-SH viability, CellTiter-Glo luminescence, 48 h; series mostly up to 57 µM; further: potency means the concentration at half of the fitted maximal effect; nearly all actives have a fitted effect of over 65% in size
Records with an inconclusive call do not appear. The source made the active and inactive calls. Calls follow the shape of the dose curve; as a rule, active = well fitted cell-killing curve with a large enough effect; inconclusive = small, poorly fitted or top-dose-only effect; inactive = no such curve, though single readings can be large or run the other way.
readout.kind: Potency

Exercise: Request the reported Potency associated with Nc1[nH]nc2nnc(-c3c(-c4ccccc4)nn4ccccc34)cc12
Solution: 4.29 µM (active)

Alright, here's another molecule for you.
Exercise: Request the reported Potency associated with O=S(=O)(NCCNCC=Cc1ccc(Br)cc1)c1cccc2cnccc12
Solution: 19.2 µM (active)

====

assay: Quantitative High-Throughput drug screen in 47 multiple myeloma cell lines against the NCATS MIPE library collection: XG6_PLB cell viability assay (AID 1919865); conditions: XG6 myeloma viability, CellTiter-Glo ATP luminescence, 48 h; series mostly up to 45.8 µM; further: potency means the concentration at half of the fitted maximal effect; nearly all actives have a fitted effect of over 40% in size
Inconclusive results are not listed. Calls of active or inactive are those of the source. The call rests on the fitted dose curve; in most records, active means well fitted cell-killing curve with a large enough effect; inconclusive means small, poorly fitted or top-dose-only effect, or effect the other way; inactive means no such curve, though single readings can be large or run the other way.
readout.kind: Potency

Below: 3 molecules and their reported Potency.
Exercise: Request the reported Potency associated with CCN1CCC(n2cc(CNc3cc(Cl)c4ncc(C#N)c(Nc5ccc(F)c(Cl)c5)c4c3)nn2)CC1
Solution: 14800 nM (active)

Exercise: Request the reported Potency associated with CCNC(=O)c1noc(-c2cc(C(C)C)c(O)cc2O)c1-c1ccc(CN2CCOCC2)cc1
Solution: 132 nM (active)

Exercise: Request the reported Potency associated with O=C(CC12CC3CC(CC(C3)C1)C2)Nc1cccc2nc(NCCNCCO)ccc12
Solution: 1180 nM (active)

Alright, here's another molecule for you.
Exercise: Request the reported Potency associated with CC(C)(C)c1nc(-c2cccc(NS(=O)(=O)c3c(F)cccc3F)c2F)c(-c2ccnc(N)n2)s1
Solution: 2960 nM (active)
